Test system: OVCAR-5 ovarian
Assay overview: NCI tumour cell line growth inhibition, 48 h
Each entry below carries its reported TGI.

{"Molecule": "O=C1Nc2ccccc2/C1=C\\c1nc(C2CCN(S(=O)(=O)c3ccc(F)cc3)CC2)n2ccccc12", "TGI": "> 100 µM"}
{"Molecule": "CC(CNCCCNCCNCCCNCO)[N+](=O)[O-] (stereo unspecified)", "TGI": "26.8 µM"}
{"Molecule": "COc1ccc2c(c1)CCCN2S(=O)(=O)c1ccccc1[N+](=O)[O-]", "TGI": "> 100 µM"}
{"Molecule": "O=[n+]1c2ccccc2n([O-])c2cc(Cl)ccc21", "TGI": "33.5 µM"}
{"Molecule": "CCOc1ccc(N=NS(=O)(=O)O)cc1", "TGI": "> 100 µM"}
{"Molecule": "Cc1cccc(N2C(=O)C(=O)C(c3nc4ccccc4s3)/C(=N/NC(=S)NN)C2=O)c1C (stereo unspecified)", "TGI": "> 100 µM"}
{"Molecule": "COc1ccc2c(Cl)cc(NC(=O)Nc3c(C)cccc3C)nc2c1", "TGI": "> 100 µM"}
{"Molecule": "Cc1[nH]c(-c2nc3ccccc3[nH]2)c(C)c1C(=O)NC(C)C1CCCCC1 (stereo unspecified)", "TGI": "29.2 µM"}
{"Molecule": "Cc1ccc(C(SCC(N)C(=O)O)(c2ccccc2)c2ccccc2)cc1 (stereo unspecified)", "TGI": "> 100 µM"}
{"Molecule": "CC1=C(C(=O)Nc2ccc([N+](=O)[O-])cc2)C(c2ccc3c(c2)OCO3)C(C(=O)Nc2ccc([N+](=O)[O-])cc2)=C(C)N1", "TGI": "> 100 µM"}
{"Molecule": "Nc1c(N2CCOCC2)c(=O)nc2[nH]/c(=C\\c3ccccc3)c(=O)n12", "TGI": "> 100 µM"}
{"Molecule": "Cc1nn2c(C(=O)N/N=C/c3ccc([N+](=O)[O-])cc3)c(C)nc2s1", "TGI": "> 100 µM"}
{"Molecule": "CN(C)CCn1c(=O)c2ccc3c4c(nn3CCN(C)C)c3cc([N+](=O)[O-])ccc3n(c1=O)c24", "TGI": "0.448 µM"}
{"Molecule": "NC(=O)/C=c1/c2ccccc2n2nc3ccccc3c12", "TGI": "77.8 µM"}
{"Molecule": "Nc1nc2ccc(OCC(O)CN3CCCCC3)cc2[n+]([O-])n1 (stereo unspecified)", "TGI": "> 100 µM"}
{"Molecule": "c1cncc(O[Si](Oc2cccnc2)(Oc2cccnc2)Oc2cccnc2)c1", "TGI": "> 100 µM"}
{"Molecule": "O=S(=O)([O-])[O-].[Cl-].[NH2-].[NH2-].[NH2-].[NH2-].[Ru+3].c1ccncc1", "TGI": "> 100 µM"}
{"Molecule": "Cc1ccc(C2=Nc3c(N)ncnc3NC(c3ccc4c(c3)OCO4)C2)cc1 (stereo unspecified)", "TGI": "> 100 µM"}
{"Molecule": "CCOC(=O)C1=C(C)N(NC(N)=O)C(C)(O)C12CCOC2=O (stereo unspecified)", "TGI": "> 100 µM"}
{"Molecule": "CCCCC(=O)N/N=C/c1c(O)ccc2ccccc12", "TGI": "> 100 µM"}
{"Molecule": "N#Cc1c(Cl)nc2ccccc2c1N=[N+]=[N-]", "TGI": "15.2 µM"}
